Listed next: entries and their corresponding IC50.
- studyTarget: KRAS WT (Homo sapiens (Human), UniProt P01116)
- Sequence (P01116-2 other isoform, or with tags, fused parts or gaps): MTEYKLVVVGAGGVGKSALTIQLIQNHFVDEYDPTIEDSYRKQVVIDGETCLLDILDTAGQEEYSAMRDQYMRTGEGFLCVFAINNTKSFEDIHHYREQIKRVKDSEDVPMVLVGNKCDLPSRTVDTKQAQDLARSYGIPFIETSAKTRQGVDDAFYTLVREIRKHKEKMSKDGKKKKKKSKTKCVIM
- methodDescription: KRAS WT Biochemical Assay, BODIPY-GDP Exchange TR-FRET (Example 501; 3 nM KRAS WT, 3 nM SOS1, 60-minute incubation)
- conditionInfo: read-out: KRas HTRF IC50

// worked examples, IC50 included
Query :: Which IC50 is reported for this compound? Cc1c(F)c(N)cc(-c2nc3c4c(nc(OC[C@@]56CCCN5C[C@H](F)C6)nc4c2F)N2CCN[C@@H](C)[C@H]2[C@H](C)O3)c1C(F)(F)F (single isomer, unassigned) [234 (isomer 1)]
Result :: 23300 nM

Query :: Which IC50 is reported for this compound? Cc1c(F)c(N)c(F)c(-c2nc3c4c(nc(OC[C@@]56CCCN5CC5(CC5(F)F)C6)nc4c2F)N2C[C@H]4CC[C@H](N4)[C@H]2[C@H](C)O3)c1C(F)(F)F (some centres unmarked) [Compound 225]
Result :: 4.2 nM

Query :: Which IC50 is reported for this compound? Cc1c(F)c(N)cc(-c2nc3c4c(nc(OC[C@@]56CCCN5C[C@H](F)C6)nc4c2F)N2CCNC[C@H]2[C@H](C)O3)c1C(F)(F)F (single isomer, unassigned) [235 (isomer 1)]
Result :: 143 nM

Query :: Which IC50 is reported for this compound? C[C@@H]1Oc2nc(-c3cc(N)c(F)c(Cl)c3CC(F)F)c(F)c3nc(OC[C@@]45CCCN4C[C@H](F)C5)nc(c23)N2C[C@H]3CC[C@H](N3)[C@@H]12 [Compound 186]
Result :: 5.61 nM

Query :: Which IC50 is reported for this compound? C[C@@H]1Oc2nc(-c3cc(N)c(F)cc3CC(F)F)c(F)c3nc(OC[C@@]45CCCN4C[C@H](F)C5)nc(c23)N2C[C@H]3CC[C@H](N3)[C@@H]12 [Compound 187]
Result :: 163 nM

Query :: Which IC50 is reported for this compound? Cc1c(F)c(N)cc(-c2nc3c4c(nc(OC[C@@]56CCCN5C[C@H](F)C6)nc4c2F)N2C[C@H]4CC[C@H](N4)[C@@H]2[C@@H](C(F)(F)F)O3)c1C(F)(F)F [Compound 248]
Result :: 0.522 nM

Query :: Which IC50 is reported for this compound? Cc1nc(N)c(F)c(-c2nc3c4c(nc(OCC5(CN6C[C@@H]7C[C@H]6CO7)CC5)nc4c2F)N2C[C@H]4CC[C@H](N4)[C@H]2[C@H](C)O3)c1C(F)(F)F [Compound 222]
Result :: 45.7 nM

Query :: Which IC50 is reported for this compound? Cc1c(F)c(N)cc(-c2nc3c4c(nc(OC[C@@]56CCCN5C[C@H](F)C6)nc4c2F)N2CCNC[C@H]2C(C)O3)c1C(F)(F)F (single isomer, unassigned) [235 (isomer 2)]
Result :: 2.63 nM

Query :: Which IC50 is reported for this compound? C[C@@H]1Oc2nc(-c3cc(N)cc4c3CC4)c(F)c3nc(OC[C@@]45CCCN4C[C@H](F)C5)nc(c23)N2C[C@H]3CC[C@H](N3)[C@@H]12 [Compound 201]
Result :: 1620 nM

Query :: Which IC50 is reported for this compound? Cc1nc(N)cc(-c2nc3c4c(nc(OCC5(CN6CC7CC(F)(F)C7C6)CC5)nc4c2F)N2C[C@H]4CC[C@H](N4)[C@H]2[C@H](C)O3)c1C(F)(F)F (mixture of isomers) [Compound 264]
Result :: 19.2 nM

New cases:
Query :: Which IC50 is reported for this compound? Cc1nc(N)cc(-c2nc3c4c(nc(OCC5(CN6CC7CC(C6)O7)CC5)nc4c2F)N2C[C@H]4CC[C@H](N4)[C@H]2[C@H](C)O3)c1C(F)(F)F [Compound 265]
Result :: 14.1 nM

Query :: Which IC50 is reported for this compound? Cc1nc(N)cc(-c2nc3c4c(nc(OCC5(CN6CCO[C@H](C)C6)CC5)nc4c2F)N2C[C@H]4CC[C@H](N4)[C@H]2[C@H](C)O3)c1C(F)(F)F [Compound 213]
Result :: 13.6 nM

Query :: Which IC50 is reported for this compound? Cc1c(F)c(N)cc(-c2nc3c4c(nc(OC[C@@]56CCCN5C[C@H](F)C6)nc4c2F)N2CCN[C@@H](C)[C@H]2[C@@H](C)O3)c1C(F)(F)F (single isomer, unassigned) [234 (isomer 2)]
Result :: 513 nM

Query :: Which IC50 is reported for this compound? Cc1c(F)c(N)cc(-c2nc3c4c(nc(OCC56CCN5CC(F)(F)C6)nc4c2F)N2C[C@H]4CC[C@H](N4)[C@H]2[C@H](C(F)(F)F)O3)c1C(F)(F)F (mixture of isomers) [Compound 244]
Result :: 11.9 nM
